experimental system: recombinant poly(ADP-ribose) polymerase 1 (PARP1) (Homo sapiens (Human))
Sequence (P09874 whole entry): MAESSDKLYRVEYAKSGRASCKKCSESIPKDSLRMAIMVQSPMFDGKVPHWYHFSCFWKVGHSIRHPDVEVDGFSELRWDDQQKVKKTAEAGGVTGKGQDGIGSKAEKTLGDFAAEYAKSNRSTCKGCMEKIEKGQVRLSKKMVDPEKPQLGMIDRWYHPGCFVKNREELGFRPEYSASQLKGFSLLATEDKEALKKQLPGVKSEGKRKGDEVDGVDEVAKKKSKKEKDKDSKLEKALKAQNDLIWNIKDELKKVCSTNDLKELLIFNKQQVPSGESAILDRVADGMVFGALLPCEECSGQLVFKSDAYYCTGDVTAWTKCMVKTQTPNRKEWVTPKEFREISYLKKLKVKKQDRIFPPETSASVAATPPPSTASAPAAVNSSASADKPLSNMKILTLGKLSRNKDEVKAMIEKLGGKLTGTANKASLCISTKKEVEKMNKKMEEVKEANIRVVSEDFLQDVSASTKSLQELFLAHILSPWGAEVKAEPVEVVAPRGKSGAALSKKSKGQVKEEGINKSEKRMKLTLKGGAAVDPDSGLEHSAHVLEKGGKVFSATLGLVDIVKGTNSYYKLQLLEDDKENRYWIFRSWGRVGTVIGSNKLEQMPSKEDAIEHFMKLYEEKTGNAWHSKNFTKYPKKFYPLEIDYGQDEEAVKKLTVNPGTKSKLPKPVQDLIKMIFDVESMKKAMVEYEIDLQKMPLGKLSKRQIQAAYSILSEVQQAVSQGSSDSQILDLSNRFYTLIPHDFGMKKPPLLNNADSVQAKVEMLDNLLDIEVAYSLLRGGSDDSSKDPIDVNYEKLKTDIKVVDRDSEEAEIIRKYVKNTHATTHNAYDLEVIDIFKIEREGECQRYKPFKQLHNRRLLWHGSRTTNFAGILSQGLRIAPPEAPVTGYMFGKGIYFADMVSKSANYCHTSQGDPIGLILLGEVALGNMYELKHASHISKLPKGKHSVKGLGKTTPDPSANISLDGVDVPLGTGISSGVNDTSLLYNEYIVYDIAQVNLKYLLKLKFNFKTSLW
readout: IC50 (nM)
Express the result in nM but write the number alone.

structure as smiles	experimental system	readout	value observed
CNC(=O)c1ccc(N2CCN(Cc3ccc4c(c3)[nH]c(=O)c3[nH]ccc34)CC2)c(F)n1	recombinant poly(ADP-ribose) polymerase 1 (PARP1) (Homo sapiens (Human))	IC50	5.94
CNC(=O)c1ccc(N2CCN(Cc3ccc4c([nH]c(=O)c5c(C)cnn54)c3F)C[C@H]2C)c(F)n1	recombinant poly(ADP-ribose) polymerase 1 (PARP1) (Homo sapiens (Human))	IC50	0.21

Task: Look up recombinant poly(ADP-ribose) polymerase 1 (PARP1) (Homo sapiens (Human)) data: IC50 of CNC(=O)c1ccc(N2CCN(Cc3ccc4c([nH]c(=O)n5nccc45)c3F)CC2)c(C)n1 , then report it.
Result: 1.08

====

Tested on: MDA-MB-436 cells
experiment notes: Growth inhibition assay against BRCA mutant human breast cancer MDA-MB-436 cell line (CCK-8)
Type: cell-based
condition summary: Homo sapiens, MDA-MB-436, […], proliferation of MDA-MB-436 cells, 7 days
pIC50: −log10 of the molar value.
Decide using pIC50: a value greater than or equal to 8 is Met, a smaller one is Not met.

Task: Confirm if pIC50 reported for the compound Cc1cnn2c1c(=O)[nH]c1c(F)c(CN3CCN(c4ccc(-c5ncc[nH]5)nc4)CC3)ccc12 is 8 or above.
Result: Not met

Task: Confirm if pIC50 reported for the compound CNC(=O)c1ccc(C2=CCN(Cc3ccc4c([nH]c(=O)c5c(C)cnn54)c3F)CC2)c(F)n1 is 8 or above.
Result: Met

Task: Confirm if pIC50 reported for the compound CNC(=O)c1ccc(N2CCN(Cc3ccc4c(c3)[nH]c(=O)c3cn[nH]c34)CC2)c(C)n1 is 8 or above.
Result: Met

Task: Confirm if pIC50 reported for the compound CNC(=O)c1ccc(N2CCN(Cc3cc(F)c4c(c3)[nH]c(=O)n3cc(C)nc43)CC2)c(C)n1 is 8 or above.
Result: Met

Task: Confirm if pIC50 reported for the compound CNC(=O)c1ccc(N2CCN(Cc3ccc4c(c3)[nH]c(=O)c3[nH]ccc34)CC2)c(F)n1 is 8 or above.
Result: Not met

Task: Confirm if pIC50 reported for the compound NC(=O)c1ccc(N2CCN(Cc3ccc4c([nH]c(=O)c5occc54)c3F)CC2)c(F)n1 is 8 or above.
Result: Not met

Task: Confirm if pIC50 reported for the compound [2H]C([2H])([2H])NC(=O)c1ccc(N2CCN(Cc3ccc4c([nH]c(=O)c5c(F)cnn54)c3F)CC2)c(F)n1 is 8 or above.
Result: Met

====

experimental system: recombinant poly(ADP-ribose) polymerase 2 (PARP2) (Homo sapiens, UniProt Q9UGN5)
Sequence (Q9UGN5 whole entry, looked up): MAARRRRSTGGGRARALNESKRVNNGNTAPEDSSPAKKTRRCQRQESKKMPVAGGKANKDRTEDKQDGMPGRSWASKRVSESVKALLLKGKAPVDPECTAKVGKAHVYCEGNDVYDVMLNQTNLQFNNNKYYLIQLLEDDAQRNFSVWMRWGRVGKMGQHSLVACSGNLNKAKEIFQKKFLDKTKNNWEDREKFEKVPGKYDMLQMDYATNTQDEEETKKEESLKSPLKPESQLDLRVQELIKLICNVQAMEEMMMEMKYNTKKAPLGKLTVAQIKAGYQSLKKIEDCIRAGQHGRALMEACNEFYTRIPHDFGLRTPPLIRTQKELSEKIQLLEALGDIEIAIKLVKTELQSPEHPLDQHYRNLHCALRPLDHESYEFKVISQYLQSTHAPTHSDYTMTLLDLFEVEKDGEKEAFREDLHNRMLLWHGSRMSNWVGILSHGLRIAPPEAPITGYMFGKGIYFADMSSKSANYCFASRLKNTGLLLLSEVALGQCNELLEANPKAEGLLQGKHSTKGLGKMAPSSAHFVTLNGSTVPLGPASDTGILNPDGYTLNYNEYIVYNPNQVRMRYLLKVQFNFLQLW
experiment notes: PARP2 chemiluminescent assay
Assay type: biochemical
condition summary: inhibition of PARP2 enzyme activity, chemiluminescence
readout: IC50 (nM)
Express the result in nM but write the number alone.

Completed entries (count: 5):
structure as smiles	IC50 / nM
CNC(=O)c1ccc(C2CCN(Cc3ccc4c([nH]c(=O)c5occc54)c3F)CC2)c(F)n1	5370
CNC(=O)c1ccc(N2CCN(Cc3ccc4c(c3)[nH]c(=O)c3ccsc34)CC2)c(C)n1	78
CNC(=O)c1ccc(N2CCN(Cc3cc(F)c4c(c3)[nH]c(=O)c3cscc34)CC2)c(C)n1	13.3
CNC(=O)c1ccc(N2CCN(Cc3ccc4c(c3)[nH]c(=O)c3sccc34)CC2)c(C)n1	10.1
O=C(NCC(F)F)c1ccc(N2CCN(Cc3ccc4c([nH]c(=O)c5occc54)c3F)CC2)c(F)n1	2400

Task: Provide only the value of recorded IC50 for CNC(=O)c1ccc(N2CCN(Cc3ccc4c(c3)[nH]c(=O)c3cnn(C)c34)CC2)c(C)n1
Result: 54.9

Task: Provide only the value of recorded IC50 for CNC(=O)c1ccc(C2=CCN(Cc3ccc4c([nH]c(=O)c5c(F)cnn54)c3F)CC2)c(F)n1
Result: 774

Task: Provide only the value of recorded IC50 for CNC(=O)c1ccc(N2CCN(Cc3cc(F)c4c(c3)[nH]c(=O)c3sccc34)CC2)c(C)n1
Result: 16.9

Task: Provide only the value of recorded IC50 for CNC(=O)c1ccc(N2CCN(Cc3ccc4c(c3)[nH]c(=O)c3cscc34)CC2)c(C)n1
Result: 18.3

====

Tested on: MDA-MB-436 cells
experiment notes: Growth inhibition assay against BRCA mutant human breast cancer MDA-MB-436 cell line (CCK-8)
Assay type: cell-based
condition summary: Homo sapiens, MDA-MB-436, […], proliferation of MDA-MB-436 cells, 7 days
readout: IC50 (nM)
Express the result in nM but write the number alone.

Completed entries (count: 2):
compound	experimental system	value observed
Cc1cnn2c1c(=O)[nH]c1c(F)c(CN3CCN(c4ccc(C(=O)NC5CC5)nc4F)CC3)ccc12 [Example 126]	MDA-MB-436 cells	4.5
Cc1nc(C(=O)NC2CC2)ccc1N1CCN(Cc2ccc3c([nH]c(=O)n4ccnc34)c2F)CC1 [Example 65]	MDA-MB-436 cells	53.8

Task: Provide only the value of recorded IC50 for Cc1cnn2c1c(=O)[nH]c1c(F)c(CN3CCN(c4ccc(C(=O)N[C@@H]5CCOC5)nc4F)CC3)ccc12 [Example 156]
Result: 6.08

====

experimental system: recombinant poly(ADP-ribose) polymerase 2 (PARP2)
experiment notes: PARP2 chemiluminescent assay
Type: biochemical
condition summary: inhibition of PARP2 enzyme activity, chemiluminescence
Binary label based on IC50 with cut-off 2000 nM: below gives yes (1), not below gives no (0).

compound	assigned label
CNC(=O)c1ccc(N2CCN(Cc3cc4[nH]c(=O)c5cn(C)nc5c4cc3F)CC2)c(F)n1 [Example 91]	yes (1)
Cc1cnn2c1c(=O)[nH]c1c(F)c(CN3CCN(c4ccc(C(=O)NCC(F)F)nc4F)CC3)ccc12 [Example 129]	no (0)
CNC(=O)c1ccc(N2CCN(Cc3ccc4c(c3)[nH]c(=O)c3nn(C)cc34)CC2)c(C)n1 [Example 69]	no (0)
CNC(=O)c1ccc(N2CCN(Cc3ccc4c([nH]c(=O)c5ccoc54)c3F)CC2)c(F)n1 [Example 44]	yes (1)
CNC(=O)c1ccc(N2CCN(Cc3ccc4c(c3)[nH]c(=O)c3nc[nH]c34)CC2)c(C)n1 [Example 25]	no (0)
CNC(=O)c1ccc(N2CCN(Cc3ccc4c(c3)[nH]c(=O)c3oncc34)CC2)c(C)n1 [Example 30]	no (0)

Continue with the next compound.
Task: Dear colleague, could you confirm whether IC50 of CNC(=O)c1ccc(N2CCN(Cc3ccc4c(c3)[nH]c(=O)c3c4cnn3C)CC2)c(C)n1 [Example 71] falls below 2000 nM? Thanks.
Result: yes (1)

====

experimental system: recombinant poly(ADP-ribose) polymerase 2 (PARP2)
experiment notes: PARP2 chemiluminescent assay
Type: biochemical
condition summary: inhibition of PARP2 enzyme activity, chemiluminescence
The following molecules are shown together with reported IC50 values.
Express the result in nM but write the number alone.

molecule	readout	unit info	value observed
CNC(=O)c1ccc(N2CCN(Cc3ccc4c(c3)[nH]c(=O)c3ncoc34)CC2)c(C)n1 [Example 12]	IC50	nM	6370
CNC(=O)c1ccc(N2CCN(Cc3ccc4c([nH]c(=O)n5cc(C)nc45)c3F)CC2)c(F)n1 [Example 140]	IC50	nM	1250
CNC(=O)c1ccc(N2CCN(Cc3cc4[nH]c(=O)c5c(F)cnn5c4cc3F)CC2)c(Cl)n1 [Example 184]	IC50	nM	67.1

Task: Look up recombinant poly(ADP-ribose) polymerase 2 (PARP2) data: IC50 of CNC(=O)c1ccc(N2CCN(Cc3ccc4c([nH]c(=O)c5cncn54)c3F)CC2)c(F)n1 [Example 55] , then report it.
Result: 776

====

Tested on: MDA-MB-436 cells
experiment notes: Growth inhibition assay against BRCA mutant human breast cancer MDA-MB-436 cell line (CCK-8)
Format: cell-based
condition summary: Homo sapiens, MDA-MB-436, […], proliferation of MDA-MB-436 cells, 7 days
The following compounds are shown together with reported log10 of IC50 values.
// units: nM (pre-log); metric: IC50; scale: log10

structure as smiles	log10 of IC50
CNc1nccc2cc(N3CCN(Cc4ccc5c([nH]c(=O)c6c(C)cnn65)c4F)CC3)cnc12	1.63
CNC(=O)c1ccc(N2CCN(Cc3ccc4c([nH]c(=O)c5c(C)cnn54)c3F)CC2)c(F)n1	0.48
CNC(=O)c1ccc(N2CCN(Cc3ccc4c(c3)[nH]c(=O)c3[nH]ccc34)CC2)c(C)n1	1.19

Task: Provide only the value of recorded log10 of IC50 for CNC(=O)c1ccc(N2CCN(Cc3ccc4c([nH]c(=O)c5c(C)cnn54)c3F)CC2)c(C#N)n1
Result: 0.20

Task: Provide only the value of recorded log10 of IC50 for CNC(=O)c1ccc(C2CCN(Cc3ccc4c([nH]c(=O)c5c(C)cnn54)c3F)CC2)c(F)n1
Result: 1.41
